Items are presented alongside their recorded composite z-score.
- Test system: Plasmodium falciparum Sir2 (PF13_0152, Sir2A)
- PROTOCOL DESCRIPTION: pfSir2 binders on small-molecule microarrays, primary screen, biochemical, small-molecule microarray, 635 nm fluorescence (AID 1098);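 also: score merges spot fluorescence intensity with its signal-to-noise ratio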
- CONDITION LABEL: small-molecule microarray binding, fluorescence 635 nm; higher = more signal
Respond using a number only.

COMPOUND	EXPERIMENTAL TARGET	EXPERIMENTAL RESULT
CC(C)C(O)C1C=CC2C(=O)N(C)C(=O)C2N1N(c1ccccc1)c1ccccc1 (configuration not stated)	Plasmodium falciparum Sir2 (PF13_0152, Sir2A)	1.09

[Q] Provide measured composite z-score value, entry: CC(C)OC(=O)CC(=O)CC(O)c1cccc(C#N)c1 (configuration not stated)
[A] 0.431

[Q] Provide measured composite z-score value, entry: C=CCC(OC(C)=O)[C@@H]1[C@@H](N(Cc2ccc(-c3ccccc3)cc2)C(=O)c2cccc3ccccc23)c2cc(OCCCO)ccc2N1C(=O)Cc1ccc2ccccc2c1 (some centres not stated)
[A] -0.417

[Q] Provide measured composite z-score value, entry: C[C@@H](OCc1ccccc1)C1NC(=O)[C@@]23C(=O)N[C@@H](Cc4ccccc4)C2[C@H](C)[C@@]2(C)O[C@H]2C3/C=C/C/C=C\CNC(=O)CNC1=O (some centres not stated)
[A] 1.4
